Measured values drawn from patent US11964929B2 for this set.

# Tested on: Grass carps
# conditions_used: basal ration + 500 ppm, restricted feeding, 8 weeks
readout: Average final weight (g)
Answer format: numeric, g implied, no suffix.

Provide Average final weight value for the following compound: CCNC(=O)CCC(NC(=O)c1ccccc1)C(=O)OCC (stereo not shown)
681

Provide Average final weight value for the following compound: CCCC(=O)NC(CCC(=O)NCC)C(=O)O (stereo not shown)
687

Provide Average final weight value for the following compound: CCNC(=O)CCC(NC(=O)c1ccccc1)C(=O)O (stereo not shown)
678

Provide Average final weight value for the following compound: CCCCNC(=O)CCC(NC(=O)c1ccccc1)C(=O)O (stereo not shown)
690

Provide Average final weight value for the following compound: CCNC(=O)CCC(NC(=O)c1ccc(Cl)cc1)C(=O)O (stereo not shown)
669

Provide Average final weight value for the following compound: O=C(NC(CCC(=O)N1CCCCC1)C(=O)O)c1ccccc1 (stereo not shown)
678

Provide Average final weight value for the following compound: CCCCCCCCCC(=O)NC(CCC(=O)NCC)C(=O)O (stereo not shown)
678

Provide Average final weight value for the following compound: CCNC(=O)CCC(NC(=O)c1ccc(O)cc1)C(=O)O (stereo not shown)
692

Provide Average final weight value for the following compound: CCCCCCCCCCCCCC(=O)NC(CCC(=O)NCC)C(=O)O (stereo not shown)
681

Provide Average final weight value for the following compound: CCNC(=O)CCC(NC(=O)c1ccc(C)cc1)C(=O)O (stereo not shown)
681

----------
# System: Duroc×Landrace×Yorkshire cross-bred bacon-type pigs
# assay: Effect of the glutamine derivatives on the production performance of hogs (piglets), 28-day feeding
# Assay type: in vivo
# conditions_used: 65-day-old pigs, basal ration + 800 ppm, 28 days; ADFI/ADG
# Text: 480 65-day-old Duroc×Landrace×Yorkshire cross-bred bacon-type pigs with similar body weight, were randomly divided into 16 groups, with 3 replications per group and 10 pigs (half of male and female) per replication. The pig pen and tools were sterilized before the experiment. […] The experiment lasted for 28 days.
readout: FCR (feed conversion ratio)
Enter the number alone.

Provide FCR (feed conversion ratio) value for the following compound: CCNC(=O)CCC(NC(=O)c1ccc(O)cc1)C(=O)O (centres unmarked) [Compound 12]
2.528

Provide FCR (feed conversion ratio) value for the following compound: CCCC(=O)NC(CCC(=O)NCC)C(=O)O (centres unmarked) [Compound 13]
2.566

Provide FCR (feed conversion ratio) value for the following compound: CCCCCCCCCCCCCC(=O)NC(CCC(=O)NCC)C(=O)O (centres unmarked) [Compound 15]
2.571

Provide FCR (feed conversion ratio) value for the following compound: CCNC(=O)CCC(NC(=O)c1ccccc1)C(=O)O (centres unmarked) [Compound 1]
2.506

Provide FCR (feed conversion ratio) value for the following compound: CCNC(=O)CCC(NC(=O)c1ccccc1)C(=O)[O-].CCNC(=O)CCC(NC(=O)c1ccccc1)C(=O)[O-].[Cu+2] (centres unmarked) [Compound 8]
2.488

Provide FCR (feed conversion ratio) value for the following compound: CCCCCCCCCC(=O)NC(CCC(=O)NCC)C(=O)O (centres unmarked) [Compound 14]
2.548

Provide FCR (feed conversion ratio) value for the following compound: CCCCNC(=O)CCC(NC(=O)c1ccccc1)C(=O)O (centres unmarked) [Compound 2]
2.531

Provide FCR (feed conversion ratio) value for the following compound: CCNC(=O)CCC(NC(=O)c1ccccc1)C(=O)[O-].CCNC(=O)CCC(NC(=O)c1ccccc1)C(=O)[O-].[Zn+2] (centres unmarked) [Compound 7]
2.491
